measured-target: homomeric α1 GlyR (Homo sapiens, UniProt P23415)
Construct: full-length subunit, pcDNA3.1, transient expression in HEK293A; homopentamer; eGFP from separate plasmid
Sequence (P23415 29-457): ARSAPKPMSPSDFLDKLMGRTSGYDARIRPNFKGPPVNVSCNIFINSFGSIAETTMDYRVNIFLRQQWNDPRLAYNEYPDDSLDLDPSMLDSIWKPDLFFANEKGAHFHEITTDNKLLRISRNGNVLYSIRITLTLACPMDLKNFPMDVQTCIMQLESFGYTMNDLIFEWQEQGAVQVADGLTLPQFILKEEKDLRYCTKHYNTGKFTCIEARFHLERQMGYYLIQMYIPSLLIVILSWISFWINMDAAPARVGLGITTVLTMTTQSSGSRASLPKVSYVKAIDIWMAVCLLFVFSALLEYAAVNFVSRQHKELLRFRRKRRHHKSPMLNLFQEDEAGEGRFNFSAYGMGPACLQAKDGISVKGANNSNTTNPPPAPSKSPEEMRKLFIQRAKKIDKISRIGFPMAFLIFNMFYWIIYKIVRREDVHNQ
test-summary: whole-cell patch clamp, U-tube application, Hill fit of peak currents
pEC50: −log10 of the molar value.
endpoint-name: pEC50

>>> print(df.to_string())
   structure_smiles                           measured_target  endpoint_result
0         CNCC(=O)O  homomeric α1 GlyR (Homo sapiens, UniProt P23415)             1.85
